In this section, each of the compounds is paired with its reported IC50.
- TARGET OR SYSTEM: Tyk2 (Homo sapiens (Human), UniProt P29597)
- Sequence (P29597 whole entry): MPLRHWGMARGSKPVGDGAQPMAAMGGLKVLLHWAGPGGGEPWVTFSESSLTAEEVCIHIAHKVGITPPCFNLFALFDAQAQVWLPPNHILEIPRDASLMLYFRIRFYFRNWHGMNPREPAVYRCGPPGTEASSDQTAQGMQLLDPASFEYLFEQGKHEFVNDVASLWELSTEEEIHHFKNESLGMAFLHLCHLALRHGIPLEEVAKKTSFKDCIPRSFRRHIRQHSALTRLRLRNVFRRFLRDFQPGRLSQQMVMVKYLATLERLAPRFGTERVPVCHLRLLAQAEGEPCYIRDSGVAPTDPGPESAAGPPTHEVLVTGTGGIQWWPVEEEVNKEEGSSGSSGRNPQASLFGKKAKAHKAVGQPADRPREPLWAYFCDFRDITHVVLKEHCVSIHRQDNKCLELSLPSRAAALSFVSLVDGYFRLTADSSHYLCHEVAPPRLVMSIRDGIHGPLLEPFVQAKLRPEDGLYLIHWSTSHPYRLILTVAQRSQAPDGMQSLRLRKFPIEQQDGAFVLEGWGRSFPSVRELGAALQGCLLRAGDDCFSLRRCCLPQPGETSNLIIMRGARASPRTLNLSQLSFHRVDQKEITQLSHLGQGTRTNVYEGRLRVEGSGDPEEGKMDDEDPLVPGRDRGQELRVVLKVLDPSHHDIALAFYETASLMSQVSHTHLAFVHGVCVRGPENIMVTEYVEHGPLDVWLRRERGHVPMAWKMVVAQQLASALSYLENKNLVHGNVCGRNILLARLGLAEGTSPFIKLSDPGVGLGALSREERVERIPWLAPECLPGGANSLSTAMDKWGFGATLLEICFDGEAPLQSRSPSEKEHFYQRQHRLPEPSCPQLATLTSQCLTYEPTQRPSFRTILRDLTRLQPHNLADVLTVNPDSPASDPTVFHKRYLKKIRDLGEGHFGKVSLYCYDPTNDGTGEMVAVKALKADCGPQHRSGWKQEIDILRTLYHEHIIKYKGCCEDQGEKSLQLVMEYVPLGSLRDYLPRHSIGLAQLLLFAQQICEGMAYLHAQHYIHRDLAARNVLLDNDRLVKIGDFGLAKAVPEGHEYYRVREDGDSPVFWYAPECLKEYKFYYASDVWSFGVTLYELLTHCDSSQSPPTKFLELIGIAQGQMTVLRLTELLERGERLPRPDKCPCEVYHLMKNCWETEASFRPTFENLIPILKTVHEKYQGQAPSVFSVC
- ASSAY DETAILS: pSTAT4 Cell Assay (MSD, NK92 cells)
- Format: cell-based
- EXPERIMENTAL SETUP: MSD

Use these answered entries as a reference point.
COMPOUND: CC(=O)Nc1cc(Nc2ccnc(C(C)(F)F)n2)c(-c2nc3c(s2)COCC3)cn1 [Example 573]
IC50: ≤ 10 nM
//
COMPOUND: COCC(C)COc1cnc(NC(C)=O)cc1Nc1cc(C)nc(C(C)(F)F)n1 (centres unmarked) [Example 440]
IC50: 10 to 100 nM
//
COMPOUND: CC(=O)Nc1cc(Nc2ccnc(C(C)(C)F)c2)c(-c2ncc(F)cn2)cn1 [Example 216]
IC50: 100 to 1000 nM
//
COMPOUND: CC(=O)Nc1cc(Nc2cc(C(C)C)nc(C(C)(F)F)n2)c(-c2ccn(C)n2)cn1 [Example 205]
IC50: ≥ 1000 nM
//
COMPOUND: CC(=O)Nc1cc(Nc2cc(C)nc(C(C)(F)F)n2)c(OCc2ccc(C#N)o2)cn1 [Example 333]
IC50: 10 to 100 nM

Item CCc1cc(Nc2cc(NC(C)=O)ncc2OCCN2CCN(C)CC2)nc(C(C)(F)F)n1 [Example 71] has what recorded IC50? ≤ 10 nM

Next entry: CCOc1cnc(NC(=O)OC)cc1Nc1cc(C)nc(C(C)(F)F)n1 [Example 360] 10 to 100 nM

Do the same for CC(=O)Nc1cc(Nc2cc(C)nc(C(C)(F)F)n2)c(OC[C@]23CO[C@](CF)(C2)C3)cn1 [Example 421] please 10 to 100 nM

Now consider CC(=O)Nc1cc(Nc2cc(C)nc(C34COC(C3)C4)n2)c(-c2ccc3c(n2)OCC(C)(C)O3)cn1 [Example 563] . 10 to 100 nM

Can you handle CCc1cc(Nc2cc(NC(C)=O)ncc2-c2nnc(C)o2)nc(C(C)(F)F)n1 [Example 168] next? 10 to 100 nM

Same question for CC(=O)Nc1cc(Nc2cccc(C(C)(F)F)n2)c(-c2cc(=O)n(C)cn2)cn1 [Example 161] please. 10 to 100 nM

----------
# pIC50 per record follows
- TARGET OR SYSTEM: Tyk2 (Homo sapiens (Human))
- ASSAY DETAILS: pSTAT4 Cell Assay (MSD, NK92 cells)
- Assay type: cell-based
pIC50: −log10 of the molar value.

COMPOUND: CC(=O)Nc1cc(Nc2cc(C)nc(C(C)(F)F)n2)c(-c2cnc(CN3CCN(C)CC3)cn2)cn1 [Example 792]
EXPERIMENTAL READOUT: pIC50
RESULT: 7.00 to 8.00
--
COMPOUND: CC(=O)Nc1cc(Nc2ccnc(C(C)(F)F)n2)c(-c2ccc(CNC3CCOCC3)cn2)cn1 [Example 883]
EXPERIMENTAL READOUT: pIC50
RESULT: ≥ 8.00
--
COMPOUND: CCc1cc(Nc2cc(NC(C)=O)ncc2-c2ccncn2)nc(C(C)(C)F)n1 [Example 801]
EXPERIMENTAL READOUT: pIC50
RESULT: ≥ 8.00

Please give the measured pIC50 for this compound: CC(=O)Nc1cc(Nc2ccnc(C(C)(F)F)n2)c(-c2nnc(N3CCN(C)CC3)s2)cn1 [Example 774] ≥ 8.00

Now the compound CC(=O)Nc1cc(Nc2cc(C)nc(C(C)(F)F)n2)c(-c2cc(CN3CCCC3)ccn2)cn1 [Example 805] 7.00 to 8.00

Now consider COCc1ccc(-c2cnc(NC(C)=O)cc2Nc2ccnc(C(C)(F)F)n2)nc1 [Example 851] and answer again. ≥ 8.00

// query: CCc1cc(Nc2cc(NC(C)=O)ncc2-c2cc(C(F)F)ncn2)nc(C(C)(F)F)n1 [Example 891] ≥ 8.00

Repeat for the following compound: CCc1cc(Nc2cc(NC(C)=O)ncc2-c2cc(CN3C[C@@H]4C[C@H]3CO4)ncn2)nc(C(C)(F)F)n1 [Example 905] 7.00 to 8.00

How about CC(=O)Nc1cc(Nc2cc(C)nc(C(C)(F)F)n2)c(-c2ccc(P(C)(C)=O)nn2)cn1 [Example 917] ? 7.00 to 8.00

Consider next the compound COC1(C)CN(Cc2ccc(-c3cnc(NC(C)=O)cc3Nc3ccnc(C(C)(F)F)n3)nc2)C1 [Example 882] in the same way. ≥ 8.00

Could you do the same for CC(=O)Nc1cc(Nc2ccnc(C(C)(F)F)n2)c(-c2ccc(CN3CCCC3)cn2)cn1 [Example 878] , please? ≥ 8.00

And for CC(=O)Nc1cc(Nc2cc(C)nc(C(C)(F)F)n2)c(-c2cn3c(n2)CCC3)cn1 [Example 769] ? ≥ 8.00

Record: CCc1cc(Nc2cc(NC(C)=O)ncc2-c2cnc(NC)cn2)nc(C(C)(F)F)n1 [Example 860] ≤ 6.00

Try this compound too: CC(=O)Nc1cc(Nc2cc(C(C)C)nc(C(C)(F)F)n2)c(F)cn1 [Example 817] ≤ 6.00

Likewise for CC(=O)Nc1cc(Nc2ccnc(C(C)(F)F)n2)c(-c2cnc(N3C[C@@H]4C[C@H]3CO4)cn2)cn1 [Example 870] ? 7.00 to 8.00

And what about the compound CCc1cc(Nc2cc(NC(C)=O)ncc2-c2ccc(NC)cn2)nc(C(C)(F)F)n1 [Example 859] ? ≥ 8.00

----------
- TARGET OR SYSTEM: Tyk2 (Homo sapiens (Human), UniProt P29597)
- ASSAY DETAILS: pSTAT4 Cell Assay (MSD, NK92 cells)
- Format: cell-based
- EXPERIMENTAL SETUP: MSD
EXPERIMENTAL READOUT: IC50

Worked examples follow.
COMPOUND: CC(=O)Nc1cc(Nc2cc(C)nc(C(C)(F)F)n2)c(OCc2cc(C)sn2)cn1
IC50: ≤ 10 nM
--
COMPOUND: COc1cnc(NC(C)=O)cc1Nc1cc(-c2cc(F)c3nn(C)cc3c2)nc(C(C)(F)F)n1
IC50: 10 to 100 nM
--
COMPOUND: CC(=O)Nc1cc(Nc2cc(C)nc(C(C)(F)F)n2)c(-c2ccn(CC3CC3)n2)cn1
IC50: ≤ 10 nM
--
COMPOUND: CC(=O)Nc1cc(Nc2cc(C)nc(C(C)(F)F)n2)c(OCC2COC2)cn1
IC50: 10 to 100 nM
--
COMPOUND: CC(=O)Nc1cc(Nc2cc(C)nc(C(C)(F)F)n2)c(OC[C@H]2C[C@@H]2F)cn1 (racemic)
IC50: ≤ 10 nM

I am curious: what IC50 value has been reported for CC(=O)Nc1cc(Nc2cc(C)nc(C(C)(F)F)n2)c(OCCC(C)F)cn1 (centres unmarked) ? 10 to 100 nM

Now try `CC(=O)Nc1cc(Nc2ccnc(C(C)(F)F)n2)c(-c2nc(C)ns2)cn1` . 10 to 100 nM

Can you check `CC(=O)Nc1cc(Nc2cc(C)nc(C(C)(F)F)n2)c(-c2cccc(C(C)(C)C#N)n2)cn1` next? ≤ 10 nM

----------
- TARGET OR SYSTEM: Tyk2 (Homo sapiens (Human))
- ASSAY DETAILS: pSTAT4 Cell Assay (MSD, NK92 cells)
- Type: cell-based
- EXPERIMENTAL SETUP: MSD
pIC50: −log10 of the molar value.
The entries below are paired with their reported pIC50.

COMPOUND: CC(=O)Nc1cc(Nc2cc(OC3CC3)nc(C(C)(F)F)n2)c(OC[C@@H]2COCCO2)cn1 (single isomer, unassigned)
RESULT: ≥ 8.00

Please look up its pIC50: `COc1cnc(NC(C)=O)cc1Nc1cc(-c2cnc(C)s2)nc(C(C)(F)F)n1` ≥ 8.00

Field entry: `CC(=O)Nc1cc(Nc2cc(C)nc(C(C)(F)F)n2)c(-c2cnccn2)cn1` 7.00 to 8.00

----------
- TARGET OR SYSTEM: Tyk2 (Homo sapiens (Human), UniProt P29597)
- ASSAY DETAILS: pSTAT4 Cell Assay (MSD, NK92 cells)
- Assay type: cell-based
- EXPERIMENTAL SETUP: MSD
EXPERIMENTAL READOUT: IC50

Examples from the recorded data:
MOLECULE: CC(=O)Nc1cc(Nc2cncc(C(C)(F)F)n2)c(-c2ncc(F)cn2)cn1 [Example 188]
IC50: 10 to 100 nM

MOLECULE: CCc1cc(Nc2cc(NC(C)=O)ncc2-c2ccnc(COC)n2)nc(C(C)(F)F)n1 [Example 720]
IC50: ≤ 10 nM

MOLECULE: CC(=O)Nc1cc(Nc2cc(C)nc(C(C)(F)F)n2)c(OCCC2CCCN2C)cn1 (stereo not shown) [Example 501]
IC50: 100 to 1000 nM

The record that follows has no IC50 shown yet.
Entry CC(=O)Nc1cc(Nc2cc(C)nc(C(C)(F)F)n2)c(-c2cnc(F)cn2)cn1 [Example 598] : reported IC50 = ? 10 to 100 nM
